Target: CCR-3 (Homo sapiens)
Sequence (P51677 whole entry): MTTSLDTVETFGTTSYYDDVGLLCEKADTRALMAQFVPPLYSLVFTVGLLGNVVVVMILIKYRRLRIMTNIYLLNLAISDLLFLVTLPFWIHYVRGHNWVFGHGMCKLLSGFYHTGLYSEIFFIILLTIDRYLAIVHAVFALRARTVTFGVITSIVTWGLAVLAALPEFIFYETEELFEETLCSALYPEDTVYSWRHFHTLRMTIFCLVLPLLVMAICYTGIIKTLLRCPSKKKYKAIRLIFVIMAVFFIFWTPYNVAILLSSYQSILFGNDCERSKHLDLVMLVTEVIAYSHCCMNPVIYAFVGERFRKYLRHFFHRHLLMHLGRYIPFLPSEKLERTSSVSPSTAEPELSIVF
Experiment: Calcium mobilization assay (inhibition of eotaxin-induced intracellular calcium mobilization in CCR3/HEK293 cells)
Format: cell-based
Design: expressed in transfected cells
Settings: 6.25 µg/ml test compound; eotaxin 10 nM; CCR3/HEK293 cells (Table 2a)
Property label: Ca^2+ mobilization 6.25 µg/ml (inhibition %)

CC(C)CCN(CCCNC(=O)Nc1cccc(Cl)c1)Cc1cccs1 [Compound 145] :: 53
COC(=O)CCCN(CCCNC(=O)Nc1ccccc1-c1ccccc1)CCc1ccccc1 [Compound 106] :: 57
O=C(NCCCN(CCc1ccccc1)Cc1ccco1)Nc1cccc(Cl)c1 [Compound 144] :: 51
CCOC(=O)C1CC1CN(CCCNC(=O)Nc1ccccc1-c1ccccc1)CCc1ccc(Cl)c(Cl)c1 (stereo not shown) [Compound 115] :: 57
